- assay-protocol: self-splicing fitness, log relative to wild type (ln ratio); higher = more splicing; Tetrahymena group I intron in knt gene, E. coli kanamycin selection, DiMSum; sequences stand for … in CUCUCU…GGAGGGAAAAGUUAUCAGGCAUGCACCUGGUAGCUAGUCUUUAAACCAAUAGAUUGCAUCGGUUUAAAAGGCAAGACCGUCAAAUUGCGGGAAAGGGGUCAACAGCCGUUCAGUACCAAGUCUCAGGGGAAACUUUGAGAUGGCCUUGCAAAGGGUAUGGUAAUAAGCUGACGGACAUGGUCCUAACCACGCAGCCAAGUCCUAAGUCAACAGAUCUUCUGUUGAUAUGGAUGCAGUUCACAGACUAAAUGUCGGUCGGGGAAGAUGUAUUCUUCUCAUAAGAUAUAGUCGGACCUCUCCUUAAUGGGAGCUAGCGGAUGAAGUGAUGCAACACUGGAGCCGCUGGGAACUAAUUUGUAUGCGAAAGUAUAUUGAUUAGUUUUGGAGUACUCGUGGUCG;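 further: selection with 25 µg/mL kanamycin versus none on LB agar overnight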
- experimental-conditions: 37 °C
measured-metric: self-splicing fitness (ln)
Number only, please.

IN: Quick one: self-splicing fitness (ln) for CGAAAGCAAUAUUACGCCCA ?
OUT: 0.0973

IN: Quick one: self-splicing fitness (ln) for CGCGAGCAAUAUUACGCAAG ?
OUT: -2.91

IN: Quick one: self-splicing fitness (ln) for UAUCAGCAAUAUUACGGACA ?
OUT: -0.681

IN: Quick one: self-splicing fitness (ln) for AGACAGCAAUAUUACGCGGG ?
OUT: -2.62

IN: Quick one: self-splicing fitness (ln) for CGUAAGCAAUAUUACGAAGC ?
OUT: -2.73

IN: Quick one: self-splicing fitness (ln) for GUUUAGCAAUAUUACGAUCA ?
OUT: -0.619

IN: Quick one: self-splicing fitness (ln) for CUCAAGCAAUAUUACGUGAA ?
OUT: -0.629

IN: Quick one: self-splicing fitness (ln) for CCUGAGCAAUAUUACGCCUC ?
OUT: -1.88

IN: Quick one: self-splicing fitness (ln) for GAGGAGCAAUAUUACGUAAA ?
OUT: -1.32

IN: Quick one: self-splicing fitness (ln) for AUAGAGCAAUAUUACGGCAG ?
OUT: -1.37

IN: Quick one: self-splicing fitness (ln) for ACUAAGCAAUAUUACGAUAG ?
OUT: -0.427

IN: Quick one: self-splicing fitness (ln) for AAGGAGCAAUAUUACGGUCU ?
OUT: -0.298

IN: Quick one: self-splicing fitness (ln) for CAGUAGCAAUAUUACGAUUA ?
OUT: -1.73

IN: Quick one: self-splicing fitness (ln) for AGAGAGCAAUAUUACGGCUA ?
OUT: -2.19

IN: Quick one: self-splicing fitness (ln) for GUAAAGCAAUAUUACGUCAA ?
OUT: -0.85

IN: Quick one: self-splicing fitness (ln) for UACGAGCAAUAUUACGUGUU ?
OUT: -3.63

IN: Quick one: self-splicing fitness (ln) for UCCAAGCAAUAUUACGGUCA ?
OUT: 0.0746

IN: Quick one: self-splicing fitness (ln) for CGUGAGCAAUAUUACGUUGA ?
OUT: -2.94

IN: Quick one: self-splicing fitness (ln) for CACGAGCAAUAUUACGGUGC ?
OUT: -2.76

IN: Quick one: self-splicing fitness (ln) for GUUAAGCAAUAUUACGCGGA ?
OUT: -0.987

IN: Quick one: self-splicing fitness (ln) for AAGAAGCAAUAUUACGCUGG ?
OUT: -0.515

IN: Quick one: self-splicing fitness (ln) for ACGGAGCAAUAUUACGACGG ?
OUT: 0.14

IN: Quick one: self-splicing fitness (ln) for CUGCAGCAAUAUUACGUCUU ?
OUT: -2.64

IN: Quick one: self-splicing fitness (ln) for GAGCAGCAAUAUUACGGUAC ?
OUT: -0.416

IN: Quick one: self-splicing fitness (ln) for UGACAGCAAUAUUACGCACU ?
OUT: -0.101

IN: Quick one: self-splicing fitness (ln) for AAUCAGCAAUAUUACGCGGG ?
OUT: -1.42

IN: Quick one: self-splicing fitness (ln) for ACCGAGCAAUAUUACGACUA ?
OUT: -1.7

IN: Quick one: self-splicing fitness (ln) for AUGAAGCAAUAUUACGACAA ?
OUT: 0.0912

IN: Quick one: self-splicing fitness (ln) for CUGAAGCAAUAUUACGUGCA ?
OUT: -2.82

IN: Quick one: self-splicing fitness (ln) for GGUCAGCAAUAUUACGCUUC ?
OUT: -0.693

IN: Quick one: self-splicing fitness (ln) for CCUGAGCAAUAUUACGGAUC ?
OUT: -2.53

IN: Quick one: self-splicing fitness (ln) for UGAAAGCAAUAUUACGGGAU ?
OUT: -3.48

IN: Quick one: self-splicing fitness (ln) for GUCUAGCAAUAUUACGCCUG ?
OUT: -3.47

IN: Quick one: self-splicing fitness (ln) for GCUCAGCAAUAUUACGCGAA ?
OUT: -0.98
